experiment: Plasma concentration in Sprague-Dawley rat after 8 hrs; assay type: ADME, organism-based
Where a SMILES comes first, the peptide text is derived from it. [ ]: non-standard residue; d: D form. Dopa = N[C@@H](Cc1ccc(O)c(O)c1)C(=O)O
MEASURED PARAMETER: concentration at 8 h (µg/mL)

>>> result_number("COC(=O)[C@H](Cc1ccc(O)c(O)c1)NC(=O)[C@H](CCSC)NC(C)=O (Ac-Met-[Dopa]-OMe)")
53

###

solubility overview
experiment: Solubility at 50 mg in phosphate buffer at pH 7.4; format: physicochemical
Where a SMILES comes first, the peptide text is derived from it. [ ]: non-standard residue; d: D form. Dopa = N[C@@H](Cc1ccc(O)c(O)c1)C(=O)O
MEASURED PARAMETER: solubility (µg/mL)

>>> result_number("COC(=O)[C@H](CCSC)NC(=O)[C@H](Cc1ccc(O)c(O)c1)NC(C)=O (Ac-[Dopa]-Met-OMe)")
101
>>> result_number("COC(=O)[C@H](Cc1ccc(O)c(O)c1)NC(=O)[C@H](CS)NC(C)=O (Ac-Cys-[Dopa]-OMe)")
201
>>> result_number("COC(=O)[C@H](CS)NC(=O)[C@H](Cc1ccc(O)c(O)c1)NC(C)=O (Ac-[Dopa]-Cys-OMe)")
159
>>> result_number("COC(=O)[C@H](Cc1ccc(O)c(O)c1)NC(=O)[C@H](CS)NC(=O)C(C)(C)S")
13.5
>>> result_number("COC(=O)[C@H](Cc1ccc(O)c(O)c1)NC(=O)[C@H](CS)NC(=O)[C@@H](CS)NC(C)=O")
9.08
>>> result_number("COC(=O)[C@H](Cc1ccc(O)c(O)c1)NC(=O)[C@H](CCSC)NC(C)=O (Ac-Met-[Dopa]-OMe)")
174

###

assay: Solubility in water; format: physicochemical
Where a SMILES comes first, the peptide text is derived from it. [ ]: non-standard residue; d: D form. Dopa = N[C@@H](Cc1ccc(O)c(O)c1)C(=O)O
Mark NOT MET for solubility values under 100 µg/mL, and MET for everything at or above.

>>> class_name("COC(=O)[C@H](Cc1ccc(O)c(O)c1)NC(=O)[C@H](CS)NC(=O)[C@@H](CS)NC(C)=O")
"NOT MET"
>>> class_name("COC(=O)[C@H](Cc1ccc(O)c(O)c1)NC(=O)[C@H](CS)NC(C)=O (Ac-Cys-[Dopa]-OMe)")
"MET"
>>> class_name("COC(=O)[C@H](CS)NC(=O)[C@H](Cc1ccc(O)c(O)c1)NC(C)=O (Ac-[Dopa]-Cys-OMe)")
"MET"
>>> class_name("COC(=O)[C@H](Cc1ccc(O)c(O)c1)NC(=O)[C@H](CS)NC(=O)C(C)(C)S")
"NOT MET"

###

experiment: Solubility at 50 mg in phosphate buffer at pH 1.3; format: physicochemical
Where a SMILES comes first, the peptide text is derived from it. [ ]: non-standard residue; d: D form. Dopa = N[C@@H](Cc1ccc(O)c(O)c1)C(=O)O
solubility overview
MEASURED PARAMETER: solubility (µg/mL)

>>> result_number("COC(=O)[C@H](Cc1ccc(O)c(O)c1)NC(=O)[C@H](CS)NC(C)=O (Ac-Cys-[Dopa]-OMe)")
208
>>> result_number("COC(=O)[C@H](CCSC)NC(=O)[C@H](Cc1ccc(O)c(O)c1)NC(C)=O (Ac-[Dopa]-Met-OMe)")
256
>>> result_number("COC(=O)[C@H](Cc1ccc(O)c(O)c1)NC(=O)[C@H](CS)NC(=O)[C@@H](CS)NC(C)=O")
20
>>> result_number("COC(=O)[C@H](Cc1ccc(O)c(O)c1)NC(=O)[C@H](CCSC)NC(C)=O (Ac-Met-[Dopa]-OMe)")
154
>>> result_number("COC(=O)[C@H](Cc1ccc(O)c(O)c1)NC(=O)[C@H](CS)NC(=O)C(C)(C)S")
7.07
>>> result_number("COC(=O)[C@H](CS)NC(=O)[C@H](Cc1ccc(O)c(O)c1)NC(C)=O (Ac-[Dopa]-Cys-OMe)")
147

###

experiment: Solubility at 50 mg in phosphate buffer at pH 5.0; type: physicochemical
Where a SMILES comes first, the peptide text is derived from it. [ ]: non-standard residue; d: D form. Dopa = N[C@@H](Cc1ccc(O)c(O)c1)C(=O)O
MEASURED PARAMETER: log10 of solubility (log10 of the value in µg/mL)

>>> result_number("COC(=O)[C@H](CS)NC(=O)[C@H](Cc1ccc(O)c(O)c1)NC(C)=O (Ac-[Dopa]-Cys-OMe)")
2.18
>>> result_number("COC(=O)[C@H](Cc1ccc(O)c(O)c1)NC(=O)[C@H](CCSC)NC(C)=O (Ac-Met-[Dopa]-OMe)")
2.37
>>> result_number("COC(=O)[C@H](Cc1ccc(O)c(O)c1)NC(=O)[C@H](CS)NC(=O)[C@@H](CS)NC(C)=O")
1.18
>>> result_number("COC(=O)[C@H](CCSC)NC(=O)[C@H](Cc1ccc(O)c(O)c1)NC(C)=O (Ac-[Dopa]-Met-OMe)")
2.39
>>> result_number("COC(=O)[C@H](Cc1ccc(O)c(O)c1)NC(=O)[C@H](CS)NC(=O)C(C)(C)S")
0.58
>>> result_number("COC(=O)[C@H](Cc1ccc(O)c(O)c1)NC(=O)[C@H](CS)NC(C)=O (Ac-Cys-[Dopa]-OMe)")
2.36

###

test: Stability in rat plasma assessed as half life; type: ADME, cell-free
Where a SMILES comes first, the peptide text is derived from it. [ ]: non-standard residue; d: D form. Dopa = N[C@@H](Cc1ccc(O)c(O)c1)C(=O)O
half-life overview
MEASURED PARAMETER: half-life (h)

>>> result_number("COC(=O)[C@H](CS)NC(=O)[C@H](Cc1ccc(O)c(O)c1)NC(C)=O (Ac-[Dopa]-Cys-OMe)")
0.61
>>> result_number("COC(=O)[C@H](CCSC)NC(=O)[C@H](Cc1ccc(O)c(O)c1)NC(C)=O (Ac-[Dopa]-Met-OMe)")
1.55
>>> result_number("COC(=O)[C@H](Cc1ccc(O)c(O)c1)NC(=O)[C@H](CS)NC(=O)C(C)(C)S")
1.16
>>> result_number("COC(=O)[C@H](Cc1ccc(O)c(O)c1)NC(=O)[C@H](CS)NC(=O)[C@@H](CS)NC(C)=O")
0.93
>>> result_number("COC(=O)[C@H](Cc1ccc(O)c(O)c1)NC(=O)[C@H](CCSC)NC(C)=O (Ac-Met-[Dopa]-OMe)")
1.92
>>> result_number("COC(=O)[C@H](Cc1ccc(O)c(O)c1)NC(=O)[C@H](CS)NC(C)=O (Ac-Cys-[Dopa]-OMe)")
0.78

###

experiment: Stability assessed as half life in hydrochloric acid buffer at pH 1.3; assay type: physicochemical
Where a SMILES comes first, the peptide text is derived from it. [ ]: non-standard residue; d: D form. Dopa = N[C@@H](Cc1ccc(O)c(O)c1)C(=O)O
MEASURED PARAMETER: half-life (days)

>>> result_number("COC(=O)[C@H](Cc1ccc(O)c(O)c1)NC(=O)[C@H](CCSC)NC(C)=O (Ac-Met-[Dopa]-OMe)")
12.3
>>> result_number("COC(=O)[C@H](Cc1ccc(O)c(O)c1)NC(=O)[C@H](CS)NC(=O)[C@@H](CS)NC(C)=O")
12.2
>>> result_number("COC(=O)[C@H](Cc1ccc(O)c(O)c1)NC(=O)[C@H](CS)NC(C)=O (Ac-Cys-[Dopa]-OMe)")
12.5
>>> result_number("COC(=O)[C@H](CCSC)NC(=O)[C@H](Cc1ccc(O)c(O)c1)NC(C)=O (Ac-[Dopa]-Met-OMe)")
12.2
>>> result_number("COC(=O)[C@H](Cc1ccc(O)c(O)c1)NC(=O)[C@H](CS)NC(=O)C(C)(C)S")
12.2
>>> result_number("COC(=O)[C@H](CS)NC(=O)[C@H](Cc1ccc(O)c(O)c1)NC(C)=O (Ac-[Dopa]-Cys-OMe)")
12.1

###

assay: Lipophilicity, log P pf the compound at pH 7.4 by saturated shake-flask method; assay type: physicochemical; details: buffer
Where a SMILES comes first, the peptide text is derived from it. [ ]: non-standard residue; d: D form. Dopa = N[C@@H](Cc1ccc(O)c(O)c1)C(=O)O
MEASURED PARAMETER: logD

>>> result_number("COC(=O)[C@H](Cc1ccc(O)c(O)c1)NC(=O)[C@H](CS)NC(=O)[C@@H](CS)NC(C)=O")
-0.14
>>> result_number("COC(=O)[C@H](Cc1ccc(O)c(O)c1)NC(=O)[C@H](CS)NC(=O)C(C)(C)S")
0.92
>>> result_number("COC(=O)[C@H](CCSC)NC(=O)[C@H](Cc1ccc(O)c(O)c1)NC(C)=O (Ac-[Dopa]-Met-OMe)")
-0.19
>>> result_number("COC(=O)[C@H](Cc1ccc(O)c(O)c1)NC(=O)[C@H](CCSC)NC(C)=O (Ac-Met-[Dopa]-OMe)")
0.38
